- Assay Procedure: qHTS for Inhibitors of human tyrosyl-DNA phosphodiesterase 1 (TDP1): qHTS in cells in absence of CPT; also: nearly all actives have a fitted effect of over 55% in size
- Measurement Parameters: DT40 Tdp1-/- hTDP1 cells, no CPT, ATP luminescence, 48 h
In all, about 420,000 compounds went through this assay and about 64,000 (15%) were called active. Roughly 27% stayed inconclusive and do not appear here. Calls follow the shape of the dose curve; as a rule, active = well fitted inhibition curve with a large enough effect; inconclusive = small, poorly fitted or top-dose-only effect; inactive = flat fitted curve, though single readings scatter. A selection follows.
Give one outcome, nothing more. List: active, inactive

A selection of reference data follows.
>  <Compound>
C=CCc1ccccc1OCC(O)CN1CCN(CCO)CC1 (stereo not drawn)

>  <Qualitative Label>
inactive

$$$$
>  <Compound>
CCS(=O)(=O)Nc1ccc(C2=NN(C(C)=O)C(c3cccs3)C2)cc1 (stereo not drawn)

>  <Qualitative Label>
active

$$$$
>  <Compound>
O=C(O)c1cc(S(=O)(=O)Nc2ccc3cn[nH]c3c2)ccc1Br

>  <Qualitative Label>
inactive

$$$$
>  <Compound>
Cc1cccc(OCC(O)CN2CCN(CCN3C(=O)c4cccc5cccc(c45)C3=O)CC2)c1C (stereo not drawn)

>  <Qualitative Label>
active

$$$$
>  <Compound>
CCCCOc1ccc(CN2C(=O)C(=O)c3cc(Br)cc(C)c32)cc1OC

>  <Qualitative Label>
active

$$$$
>  <Compound>
CCCc1nn2c(=O)cc(COC(=O)c3ccc(NC(=O)COc4ccc(F)cc4)cc3)nc2s1

>  <Qualitative Label>
inactive

$$$$

Now for another entry.
# input // param item: "COc1ccc(OC)c(S(=O)(=O)N(C)CC(=O)N2CCN(c3ccccc3)CC2)c1" ; yields the recorded call
# output inactive

====

- Assay Procedure: qHTS for Inhibitors of human tyrosyl-DNA phosphodiesterase 1 (TDP1): qHTS in cells in absence of CPT; also: nearly all actives have a fitted effect of over 55% in size
- Measurement Parameters: DT40 Tdp1-/- hTDP1 cells, no CPT, ATP luminescence, 48 h
Out of some 420,000 compounds screened, about 64,000 (15%) were called active. Another 27% or so got no clear call; they are omitted. Calls come from the whole dose curve; as a rule, active = well fitted inhibition curve with a large enough effect; inconclusive = small, poorly fitted or top-dose-only effect; inactive = flat fitted curve, though single readings scatter. The list is a sample of the results.
Give one outcome, nothing more. List: 1 (active), -1 (inactive)

>  <Molecule>
Nc1nonc1-c1nc2ccccc2n1Cc1ccc(F)cc1

>  <Qualitative Label>
1

$$$$
>  <Molecule>
CCN(C(=O)CSc1cccc[n+]1[O-])c1ccccc1

>  <Qualitative Label>
1

$$$$
>  <Molecule>
Cc1ccc(NC(=O)c2cnc(SCC(=O)NCC3CCCO3)n(C)c2=O)cc1 (stereo not drawn)

>  <Qualitative Label>
1

$$$$
>  <Molecule>
COC(=O)c1cc(C(=O)OCC(=O)Nc2cc(C)on2)cc([N+](=O)[O-])c1

>  <Qualitative Label>
-1

$$$$
>  <Molecule>
CCN(CC)c1ccc(S(=O)(=O)N2CCOCC2)cc1NC(=O)CSc1cccc[n+]1[O-]

>  <Qualitative Label>
-1

$$$$

# input // param item: "Cc1ccc(S(=O)(=O)n2nc(C)c(S(=O)(=O)N3CCCCCC3)c2C)cc1" ; yields the recorded call
# output -1

# input // param item: "CC(C)CC(=O)N1CCN(Cc2cccc(Cl)c2)CC1" ; yields the recorded call
# output -1

# input // param item: "COc1ccc(C)c(Cn2c(-c3nonc3N)nc3ccccc32)c1" ; yields the recorded call
# output 1

# input // param item: COc1ccc(S(=O)(=O)N2CCN(C(=O)N(C)C)C2C)cc1 (stereo not drawn) ; yields the recorded call
# output -1

# input // param item: "Cn1c(SCC(=O)c2ccccc2)ncc(C(=O)Nc2ccc(F)cc2)c1=O" ; yields the recorded call
# output -1

# input // param item: "COc1ccc(CCNC(=O)CN(c2ccccc2)S(C)(=O)=O)cc1OC" ; yields the recorded call
# output -1

# input // param item: "COc1ccc(CCNS(=O)(=O)c2ccc(Cl)s2)cc1OC" ; yields the recorded call
# output -1

# input // param item: "NNC(=O)c1ccc(COCC(F)(F)C(F)F)cc1" ; yields the recorded call
# output -1

# input // param item: "Cc1nc(SCC(=O)Nc2cc(C)on2)c2c3c(sc2n1)CCCC3" ; yields the recorded call
# output -1

# input // param item: "O=C(Nc1cccc(Cl)c1)c1cncn1-c1ccc(F)cc1" ; yields the recorded call
# output -1

# input // param item: "CSc1ncc(C(=O)NCc2ccccc2Cl)c(C(F)(F)F)n1" ; yields the recorded call
# output -1

# input // param item: "COc1ccc2oc(N)nc2c1" ; yields the recorded call
# output -1

# input // param item: "COc1ccc(CCNC2=C(Cl)C(=O)N(Cc3ccccc3)C2=O)cc1OC" ; yields the recorded call
# output 1

# input // param item: CC(NC(=O)COC(=O)CCC(=O)c1ccc(Cl)cc1)c1ccccc1 (stereo not drawn) ; yields the recorded call
# output -1

# input // param item: "O=C(CSc1cccc[n+]1[O-])c1ccc(Cl)cc1" ; yields the recorded call
# output 1

====

- Assay Procedure: qHTS for Inhibitors of human tyrosyl-DNA phosphodiesterase 1 (TDP1): qHTS in cells in absence of CPT; also: nearly all actives have a fitted effect of over 55% in size
- Measurement Parameters: DT40 Tdp1-/- hTDP1 cells, no CPT, ATP luminescence, 48 h
Hit rate of the full screen: of about 420,000 compounds, about 64,000 (15%) were called active. Inconclusive results (about 27%) are left out. Calls follow the shape of the dose curve; as a rule, active = well fitted inhibition curve with a large enough effect; inconclusive = small, poorly fitted or top-dose-only effect; inactive = flat fitted curve, though single readings scatter. The list is a sample of the results.
Give one outcome, nothing more. List: active, inactive

>  <Molecule>
Cc1c(C(=O)NNC(=O)c2ccncc2)oc2ccccc12

>  <Qualitative Label>
inactive

$$$$
>  <Molecule>
Cc1ccc(C(=O)Nc2nc3ccc(Cl)cc3s2)o1

>  <Qualitative Label>
inactive

$$$$
>  <Molecule>
S=c1c2[nH]cnc2ncn1CCSc1ncnc2nc[nH]c12

>  <Qualitative Label>
inactive

$$$$
>  <Molecule>
O=C(CSc1nc2ccccc2nc1Cc1ccccc1)N1CCCCC1

>  <Qualitative Label>
active

$$$$

# input // param item: "CCCCCN(C(=O)NC(=O)Nc1ccccc1OC)S(C)(=O)=O" ; yields the recorded call
# output inactive

# input // param item: CCCC(=O)N1CCC1(C)C(=O)NS(=O)(=O)c1ccc(Cl)cc1 (stereo not drawn) ; yields the recorded call
# output inactive

# input // param item: "COc1ccccc1N1CCN(C(=O)c2c(-c3c(Cl)cccc3Cl)noc2C)CC1" ; yields the recorded call
# output active

# input // param item: "O=C(Nc1ccc2c(c1)C(=O)OC2)Nc1cccc2ccccc12" ; yields the recorded call
# output inactive

# input // param item: "COc1cc(C(=O)NCc2nnc(SCC(=O)Nc3nc4ccc(C)cc4s3)o2)cc(OC)c1OC" ; yields the recorded call
# output active

# input // param item: "COc1ccc(NC(=O)NN2CCN(C)CC2)c(OC)c1" ; yields the recorded call
# output inactive

# input // param item: "CC(C)CNC(=O)/C=C/C(=O)O" ; yields the recorded call
# output inactive

# input // param item: "N#Cc1ccc(-c2ccc(Cl)cc2)nc1Oc1ccc(F)cc1" ; yields the recorded call
# output inactive

# input // param item: "O=C(O)c1cc(Cl)c(Cl)cc1C(=O)Nc1cccc2ncccc12" ; yields the recorded call
# output inactive

# input // param item: "CC(=O)c1c(C)n([O-])c2ccccc2[n+]1=O" ; yields the recorded call
# output inactive

# input // param item: CCOc1ccc(NC(=O)C(CC(C)C)N2Cc3ccccc3C2=O)cc1 (stereo not drawn) ; yields the recorded call
# output inactive

# input // param item: "O=C(Nc1cccnc1Cl)c1cc(-c2cccc(Cl)c2)on1" ; yields the recorded call
# output inactive

# input // param item: "O=C(NC1CC1)C1=C[C@H](c2coc3ccccc3c2=O)C[C@H](OCCCCO)O1" ; yields the recorded call
# output inactive

# input // param item: "O=C(CSc1n[nH]c(-c2ccccc2)n1)N1CCCCC1" ; yields the recorded call
# output inactive

# input // param item: "CCOC(=O)N1CCN(S(=O)(=O)c2cc3c(cc2C)NC(=O)CO3)CC1" ; yields the recorded call
# output inactive

# input // param item: "CN(C)S(=O)(=O)c1ccc(N2CCCC2=O)c([N+](=O)[O-])c1" ; yields the recorded call
# output inactive

# input // param item: COc1ccc(C2=NS(=O)(=O)N(C)C(C(=O)NC(C)c3ccccc3)=C2)cc1 (stereo not drawn) ; yields the recorded call
# output inactive

# input // param item: CCOC(=O)c1cc2occc2n1CC(=O)NC1CCC(C)CC1 (stereo not drawn) ; yields the recorded call
# output inactive

# input // param item: "O=C(NNC(=O)c1ccc(Cl)cc1Cl)c1cccs1" ; yields the recorded call
# output inactive

====

- Assay Procedure: qHTS for Inhibitors of human tyrosyl-DNA phosphodiesterase 1 (TDP1): qHTS in cells in absence of CPT; also: nearly all actives have a fitted effect of over 55% in size
- Measurement Parameters: DT40 Tdp1-/- hTDP1 cells, no CPT, ATP luminescence, 48 h
Out of some 420,000 compounds screened, about 64,000 (15%) were called active. Inconclusive results (about 27%) are left out. The call rests on the fitted dose curve; in most records, active means well fitted inhibition curve with a large enough effect; inconclusive means small, poorly fitted or top-dose-only effect; inactive means flat fitted curve, though single readings scatter. The list is a sample of the results.
Give one outcome, nothing more. List: active, inactive

>  <Molecule>
C[C@H]1COC(=O)[C@H](CC(=O)OC(C)(C)C)C/C=C\C[C@@H](CC(=O)N[C@H](CO)Cc2ccccc2)C(=O)N1

>  <Qualitative Label>
active

$$$$

# input // param item: CC(C)C1C(=O)N(Cc2cn(CCC3OCCO3)nn2)CCS(=O)(=O)N1Cc1ccc(-c2ccccc2C(F)(F)F)cc1 (stereo unspecified) ; yields the recorded call
# output active

# input // param item: "Cc1cccc([C@H]2[C@@H]3C=CC[C@@H](C)[C@@H]3C(=O)N2Cc2ccccc2)c1" ; yields the recorded call
# output active
